Tested on: HeLa
test: Viability of human HeLa cells at 200 uM
Assay type: functional
Catalogue of molecules with associated Activity
Write down the numeric answer in % and omit the unit.

molecule="CCN(CC)CCCC(C)Nc1ccnc2cc(Cl)ccc12 (centres undefined) [CHLOROQUINE]" target=HeLa observed_property=Activity units_label=% endpoint_value=82

*Q* Name the recorded Activity of CCN(CC)CCOc1ccnc2cc(Cl)ccc12 , assay system HeLa.
*A* 92

*Q* Provide Activity, recorded with HeLa, of CCN(CC)CCCC(C)Nc1ccncc1 (centres undefined)
*A* 101

*Q* GET Activity where system = HeLa and item = CCN(CC)CCCC(C)Nc1ccnc2cc(C(F)(F)F)ccc12 (centres undefined)
*A* 83
